- Test system: velvetleaf
- assayMethodText: Test B pre-/postemergence herbicide test
- Format: in vivo, Abutilon theophrasti
- conditionNotes: 500 g ai/ha; visual rating, 0 = no effect, 100 = complete control; preemergence
So basically: Plant response rating, Velvetleaf at 90 or higher? That is Fulfilled. Lower than 90? That is Not fulfilled.

Solved cases (5 shown):
Item CCOC(=O)c1cccc(NC(=O)c2cc(C(C)(C)C)nn2C)n1 [Compound 313] with Plant response rating, Velvetleaf of 90 or above?
Fulfilled

Item CCn1nc(C(C)(C)C)cc1C(=S)Nc1cc(C(=S)N(C)C)ccc1F [Compound 305] with Plant response rating, Velvetleaf of 90 or above?
Fulfilled

Item CCn1nc(C(C)(C)C)cc1C(=O)Nc1cc(C(=S)N(C)C)ccc1F [Compound 294] with Plant response rating, Velvetleaf of 90 or above?
Fulfilled

Item CCc1cn(C(C)(C)C)nc1C(=O)Nc1cc(C(=O)N(CC)CC)ccn1 [Compound 234] with Plant response rating, Velvetleaf of 90 or above?
Not fulfilled

Item CCN(CC)C(=O)c1cc(NC(=O)c2cc(C(C)(C)C)nn2CC)c(F)cc1F [Compound 253] with Plant response rating, Velvetleaf of 90 or above?
Not fulfilled

New cases:
Item CCNC(=O)c1cccc(NC(=O)c2nn(C(C)(C)C)cc2Cl)c1 [Compound 219] with Plant response rating, Velvetleaf of 90 or above?
Not fulfilled

Item CCNC(=O)c1cccc(NC(=O)c2cc(C3(C)CC3)nn2CC)c1 [Compound 306] with Plant response rating, Velvetleaf of 90 or above?
Fulfilled

---

- Test system: morningglory
- assayMethodText: Test C pre-/postemergence herbicide test
- Format: in vivo, Ipomoea coccinea
- conditionNotes: Preemergence, 500 g ai/ha; scale 0 to 100, 0 no effect, 100 complete control
Label fulfilled when Morningglory plant response rating is strictly below 80; at or above that, label not fulfilled.

Solved cases (6 shown):
A record lists C#CCNC(=O)c1cccc(NC(=O)c2cc(C(C)(C)C)nn2CC)c1 [Compound 47] . Is its Morningglory plant response rating below 80?
not fulfilled

A record lists CCCN1CCc2c(NC(=O)c3cc(C(C)(C)C)nn3CC)cccc2C1=O [Compound 65] . Is its Morningglory plant response rating below 80?
fulfilled

A record lists CCOC(=O)c1cc(NC(=O)c2cc(C(C)(C)C)nn2CC)ccc1OC [Compound 96] . Is its Morningglory plant response rating below 80?
not fulfilled

A record lists C=CCNC(=O)c1cccc(NC(=O)c2cc(C(C)(C)C)nn2CC)c1 [Compound 46] . Is its Morningglory plant response rating below 80?
not fulfilled

A record lists CCn1nc(C(C)(C)C)cc1C(=O)Nc1cccc(SC(F)(F)F)c1 [Compound 130] . Is its Morningglory plant response rating below 80?
fulfilled

A record lists C#CCn1nc(C(C)(C)C)cc1C(=O)Nc1cccc(C(=O)NCC)c1 [Compound 50] . Is its Morningglory plant response rating below 80?
fulfilled

// switching to the query compound
A record lists CCc1nn(C(C)(C)C)cc1C(=O)Nc1cccc(C(=O)N(CC)CC)c1 [Compound 182] . Is its Morningglory plant response rating below 80?
not fulfilled

---

# maps each entry to its Velvetleaf plant response rating
- System: velvetleaf
- assayMethodText: Test A pre-/postemergence herbicide test
- Type: in vivo, Abutilon theophrasti
- conditionNotes: Postemergence, 500 g ai/ha; 0 to 100 scale, 0 no effect, 100 complete control
Form rule: numeric answer, no unit written next to it.

For the compound C=Cn1nc(C(C)(C)C)cc1C(=O)Nc1cccc(C(C)=O)c1 , give its reported Velvetleaf plant response rating.
0

New cases:
For the compound CCNC(=O)c1cccc(NC(=O)c2sc(C(C)(C)C)nc2CC)c1 , give its reported Velvetleaf plant response rating.
40

For the compound CCc1nc(C(C)(C)C)sc1C(=O)Nc1cccc(C(=O)NCC(F)(F)F)c1 , give its reported Velvetleaf plant response rating.
5

For the compound CCc1nn(C2CCCC2)nc1C(=O)Nc1cccc(C(=O)N2CC=CC2)c1 , give its reported Velvetleaf plant response rating.
50

---

- System: blackgrass
- assayMethodText: Test C postemergence herbicide test
- Type: in vivo, Alopecurus myosuroides
- conditionNotes: Postemergence; 250 g ai/ha; scale 0 to 100, 0 no effect, 100 complete control
experimentalEndpoint: Plant response rating, Blackgrass
Form rule: numeric answer, no unit written next to it.

Recorded results for 3 compounds are shown here.
For the compound CCc1nn(C(C)(C)C)nc1C(=O)Nc1cccc(C(=O)N(C)CC)c1 , give its reported Plant response rating, Blackgrass.
45

For the compound C=CCNC(=O)c1cccc(NC(=O)c2nn(C(C)(C)C)nc2CC)c1 , give its reported Plant response rating, Blackgrass.
45

For the compound Cc1nn(C(C)(C)C)nc1C(=O)Nc1cccc(C(=O)N2CC=CC2)c1 , give its reported Plant response rating, Blackgrass.
65

Now for the compound whose Plant response rating, Blackgrass we want.
For the compound CCNC(=O)c1cccc(NC(=O)c2nn(C(C)(C)C)nc2C)c1 , give its reported Plant response rating, Blackgrass.
45

---

- Tested on: pigweed
- assayMethodText: Test B pre-/postemergence herbicide test
- Type: in vivo, Amaranthus retroflexus
- conditionNotes: Postemergence, 500 g ai/ha; scale 0 (no effect) to 100 (complete control)
# maps each entry to its Pigweed plant response rating
Form rule: numeric answer, no unit written next to it.

Recorded results for 4 compounds are shown here.
For the compound CCN(C)C(=O)c1ccc(F)c(NC(=O)c2nn(C(C)C)nc2C)c1 , give its reported Pigweed plant response rating.
0

For the compound C=CCNC(=O)c1ccc(F)c(NC(=O)c2nn(C(C)(C)C)nc2CC)c1 , give its reported Pigweed plant response rating.
30

For the compound CCNC(=O)c1cccc(NC(=O)c2nn(C(C)(C)C)nc2Br)c1 , give its reported Pigweed plant response rating.
60

For the compound CCNC(=O)c1ccc(F)c(NC(=O)c2nn(C(C)(C)CC)nc2CC)c1 , give its reported Pigweed plant response rating.
30

New cases:
For the compound CCN(CC)C(=O)c1cccc(NC(=O)c2nn(C(C)(C)C)nc2C)n1 , give its reported Pigweed plant response rating.
10

For the compound CCOC(=O)c1ccc(F)c(NC(=O)c2nn(C(C)(C)CC)nc2CC)c1 , give its reported Pigweed plant response rating.
70

For the compound C#CCNC(=O)c1cccc(NC(=O)c2nn(C(C)(C)C)nc2C)c1 , give its reported Pigweed plant response rating.
60

---

# maps each entry to its Foxtail, Giant plant response rating
- Test system: giant foxtail
- assayMethodText: Test A pre-/postemergence herbicide test
- Type: in vivo, Setaria faberi
- conditionNotes: preemergence, 500 g ai/ha; visual injury, 0 to 100 scale (0 no effect, 100 complete control)
Form rule: numeric answer, no unit written next to it.

Recorded results for 3 molecules are shown here.
For the molecule CCn1nc(C(C)(C)C)cc1C(=O)Nc1cc(OC)ccc1F , give its reported Foxtail, Giant plant response rating.
0

For the molecule CCc1nn(C(C)(C)C)cc1C(=O)Nc1cc(C(=S)N(C)C)ccc1F , give its reported Foxtail, Giant plant response rating.
85

For the molecule CCn1nc(C(C)(C)C)nc1C(=O)Nc1cccc(C(=O)N(C)C)c1 , give its reported Foxtail, Giant plant response rating.
100

New cases:
For the molecule C=CCN(C)C(=O)c1cccc(NC(=O)c2cc(C(C)(C)C)nn2CC)c1 , give its reported Foxtail, Giant plant response rating.
60

For the molecule CCc1nc(C(C)(C)C)sc1C(=O)Nc1cccc(C(=O)NCC(C)C)c1 , give its reported Foxtail, Giant plant response rating.
45

For the molecule CCOC(=O)c1cncc(NC(=O)c2cc(C(C)(C)C)nn2CC)c1 , give its reported Foxtail, Giant plant response rating.
45

For the molecule C#CCOC(=O)c1cccc(NC(=O)c2cc(C(C)(C)C)nn2C)n1 , give its reported Foxtail, Giant plant response rating.
0

For the molecule C=CCNC(=O)c1cccc(NC(=O)c2sc(C(C)(C)C)nc2CC)c1 , give its reported Foxtail, Giant plant response rating.
75

---

# maps each entry to its Plant response rating, Surinam Grass
- System: Surinam grass
- assayMethodText: Test C pre-/postemergence herbicide test
- Assay type: in vivo, Urochloa decumbens
- conditionNotes: 500 g ai/ha; scale 0 to 100 (0 no effect, 100 complete control); visual, 12 to 14 days; preemergence
Form rule: numeric answer, no unit written next to it.

Recorded results for 4 compounds are shown here.
For the compound CCNC(=O)c1cccc(NC(=O)c2nn(C(C)(C)C)nc2C)c1 , give its reported Plant response rating, Surinam Grass.
90

For the compound CCn1nc(C(C)(C)C)cc1C(=O)Nc1cc(C(=S)N(C)C)ccc1F , give its reported Plant response rating, Surinam Grass.
100

For the compound CCn1nc(C(C)(C)C)cc1C(=O)Nc1cccc(OC(F)F)c1 , give its reported Plant response rating, Surinam Grass.
15

For the compound CCn1nc(C(C)(C)C)cc1C(=S)Nc1cc(C(=S)N(C)C)ccc1F , give its reported Plant response rating, Surinam Grass.
60

Now for the compound whose Plant response rating, Surinam Grass we want.
For the compound CCc1nn(C(C)(C)C)nc1C(=S)Nc1cccc(C(=S)N(C)C)c1 , give its reported Plant response rating, Surinam Grass.
100
